targetDesc: UniProtKB P21453
method: Inhibition of cAMP production (HTRF cAMP HiRange), S1P1 CHO-K1 cells
Type: cell-based
testParameters: CHO-K1; efficacy (SPAN) normalized to fingolimod; read-out: hS1P1 cAMP SPAN
readoutLabel: Emax

Below, 8 compounds whose answers are already recorded.
[[record]]
linenotation = "Cc1cc(-c2noc(-c3ccc4c(c3)nnn4C3CCCC3)n2)ccn1"
readoutlabel = "Emax"
reportedresult = "< 75%"

[[record]]
linenotation = "CCC1(CC)CC(=O)c2cc(-c3nc(-c4ccnc(C)c4)no3)ccc2O1"
readoutlabel = "Emax"
reportedresult = "> 75%"

[[record]]
linenotation = "CC(C)n1nnc2cc(-c3nc(-c4ccc5nncn5c4)no3)ccc21"
readoutlabel = "Emax"
reportedresult = "< 75%"

[[record]]
linenotation = "CCC1(CC)CC(=O)c2cc(-c3nc(-c4ccc(OC)cc4)no3)ccc2O1"
readoutlabel = "Emax"
reportedresult = "< 75%"

[[record]]
linenotation = "COc1cc(-c2noc(-c3ccc4c(c3)nnn4C3CCCC3)n2)ccn1"
readoutlabel = "Emax"
reportedresult = "< 75%"

[[record]]
linenotation = "COc1ccc(-c2nc(-c3ccc4c(c3)nnn4C3CCCC3)no2)cc1OC"
readoutlabel = "Emax"
reportedresult = "< 75%"

[[record]]
linenotation = "CCn1nnc2cc(-c3noc(-c4ccccc4Br)n3)ccc21"
readoutlabel = "Emax"
reportedresult = "> 75%"

[[record]]
linenotation = "CC(C)n1nnc2cc(-c3ncc(-c4ccccc4C(F)(F)F)s3)ccc21"
readoutlabel = "Emax"
reportedresult = "< 75%"


Moving on to the next compound.
Q: Please list Emax recorded for the compound "Brc1ccccc1-c1noc(-c2ccc3c(c2)nnn3C2CCOCC2)n1"
Result: < 75%

====

targetDesc: human sphingosine-1-phosphate receptor 1 (S1P1) (Homo sapiens (Human))
Sequence (P21453 whole entry, looked up): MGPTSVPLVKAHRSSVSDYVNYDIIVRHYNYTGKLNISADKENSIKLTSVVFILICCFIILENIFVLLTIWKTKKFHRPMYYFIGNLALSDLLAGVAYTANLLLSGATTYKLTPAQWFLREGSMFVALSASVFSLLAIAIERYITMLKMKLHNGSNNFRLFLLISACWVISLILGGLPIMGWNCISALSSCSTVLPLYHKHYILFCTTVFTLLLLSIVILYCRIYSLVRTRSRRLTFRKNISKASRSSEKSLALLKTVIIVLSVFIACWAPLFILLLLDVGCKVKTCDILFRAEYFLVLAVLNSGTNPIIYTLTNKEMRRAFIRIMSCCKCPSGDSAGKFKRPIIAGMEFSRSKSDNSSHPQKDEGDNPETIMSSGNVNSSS
method: Inhibition of cAMP production (HTRF cAMP HiRange), S1P1 CHO-K1 cells
Format: cell-based
testParameters: inhibition of cAMP production, S1P1 CHO-K1 cells
readoutLabel: hS1P1 cAMP pEC50

# count of solved cases: 6
[[record]]
molecule = "CC(C)Nc1ccc(-c2nnc(-c3ccc4c(c3)CCC(=O)N4)o2)cc1C#N [Compound 473]"
reportedresult = ">6.5"

[[record]]
molecule = "CC(C)n1ccc2cc(-c3nc(-c4ccccc4F)cs3)cnc21 [Compound 402]"
reportedresult = ">6.5"

[[record]]
molecule = "Cc1ccsc1-c1noc(-c2ccc3c(c2)nnn3CC(C)C)n1 [Compound 75]"
reportedresult = ">6.5"

[[record]]
molecule = "CC(C)Oc1ccc(-c2noc(-c3ccc4c(c3)nnn4C(C)C)n2)cc1C(F)(F)F [Compound 20]"
reportedresult = ">6.5"

[[record]]
molecule = "CC(C)n1nnc2cc(-c3ncc(-c4ccccc4Br)s3)ccc21 [Compound 220]"
reportedresult = "<6.5"

[[record]]
molecule = "Fc1ccc(-c2noc(-c3ccc4c(c3)nnn4C3CCCC3)n2)cc1 [Compound 232]"
reportedresult = "<6.5"


Q: Give the reported hS1P1 cAMP pEC50 for this molecule. CC(C)n1ccc2cc(-c3nc(-c4ccccc4OC(F)(F)F)no3)ccc21 [Compound 321]
Result: <6.5

Q: Please indicate hS1P1 cAMP pEC50 recorded for CCC1(CC)CC(=O)c2cc(-c3nc(-c4cncnc4)no3)ccc2O1 [Compound 620]
Result: >6.5

Q: Provide one value: measured hS1P1 cAMP pEC50 of CCC1(CC)CC(=O)c2cc(-c3nc(-c4ccc(O)nc4)no3)ccc2O1 [Compound 105]
Result: <6.5
